Reference source: ChEMBL document CHEMBL3352235

Tested on: MDA-MB-231
Test: Antitumor activity against human MDA-MB-231 cells xenografted in BALB/c mouse assessed as reduction in tumor weight at 10 mg/kg, iv dosed every 3 days for 15 days
Type: functional
Settings: read-out: GI
Measured inhibition in vivo at 10 mg/kg by item

>>> reported_measurement("CO[C@H]1/C=C\\C=C(/C)C(=O)NC2=CC(=O)C(NCc3ccc(C(F)(F)F)nc3)=C(C[C@@H](C)C[C@H](OC)[C@H](O)[C@@H](C)/C=C(\\C)[C@@H]1OC(N)=O)C2=O")
"63%"
>>> reported_measurement("C=CCNC1=C2C[C@@H](C)C[C@H](OC)[C@H](O)[C@@H](C)/C=C(\\C)[C@H](OC(N)=O)[C@@H](OC)/C=C\\C=C(/C)C(=O)NC(=CC1=O)C2=O")
"57%"
>>> reported_measurement("CO[C@H]1/C=C\\C=C(/C)C(=O)NC2=CC(=O)C(NCc3ccc(N)cc3)=C(C[C@@H](C)C[C@H](OC)[C@H](O)[C@@H](C)/C=C(\\C)[C@@H]1OC(N)=O)C2=O")
"46%"

Field: next compound
Field request: inhibition in vivo at 10 mg/kg | item: CO[C@H]1/C=C\C=C(/C)C(=O)NC2=CC(=O)C(NCc3ccc(Cl)nc3)=C(C[C@@H](C)C[C@H](OC)[C@H](O)[C@@H](C)/C=C(\C)[C@@H]1OC(N)=O)C2=O
50%
